pIC50: −log10 of the molar value.
CK1ε (Homo sapiens) pIC50 data
Sequence (P49674 whole entry): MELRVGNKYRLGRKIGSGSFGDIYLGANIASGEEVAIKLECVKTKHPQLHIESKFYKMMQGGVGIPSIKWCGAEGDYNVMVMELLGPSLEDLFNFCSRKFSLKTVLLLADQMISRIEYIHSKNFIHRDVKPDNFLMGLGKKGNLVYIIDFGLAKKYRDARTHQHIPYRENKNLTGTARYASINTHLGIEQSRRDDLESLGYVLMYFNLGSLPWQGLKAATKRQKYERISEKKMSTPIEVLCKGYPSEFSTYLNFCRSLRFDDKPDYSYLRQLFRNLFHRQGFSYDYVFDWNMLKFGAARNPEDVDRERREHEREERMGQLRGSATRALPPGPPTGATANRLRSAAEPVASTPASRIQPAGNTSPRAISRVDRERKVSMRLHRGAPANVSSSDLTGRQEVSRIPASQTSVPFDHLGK
measuredProperty: pIC50

>>> experimentalresult("Cn1cc(-n2cnc3c(NCc4nc5cc(Cl)c(Cl)cc5[nH]4)nc(N4CCOCC4)nc32)cn1")
5.80

a: Fc1ccc2[nH]c(CNc3nc(N4CCOCC4)nc4c3ncn4-c3cncs3)nc2c1F
b: Cc1cc(-n2cnc3c(NCc4nc5c(F)c(F)ccc5[nH]4)nc(N4CCOCC4)nc32)no1
c: Cn1cc(-n2cnc3c(NCc4nc5cc(F)c(F)cc5[nH]4)nc(N4CCOCC4)nc32)cn1
Enquiry: Ascending by pIC50, please. A complete answer lists every label in the requested sequence.
Return: c, b, a
(c: 5.19, b: 5.90, a: 6.20)
